Values compiled from patent EP0820989A1.

# reported IC50; entries follow
Target: rat steroid 17-20 lyase (Rattus norvegicus, UniProt P11715)
Construct: Testes were excised from ten-week-old male Wistar rats, homogenized and then centrifuged to give microsomes; from tissue; host or cells: testis microsomes of ten-week-old male Wistar rats
Sequence (P11715 whole entry): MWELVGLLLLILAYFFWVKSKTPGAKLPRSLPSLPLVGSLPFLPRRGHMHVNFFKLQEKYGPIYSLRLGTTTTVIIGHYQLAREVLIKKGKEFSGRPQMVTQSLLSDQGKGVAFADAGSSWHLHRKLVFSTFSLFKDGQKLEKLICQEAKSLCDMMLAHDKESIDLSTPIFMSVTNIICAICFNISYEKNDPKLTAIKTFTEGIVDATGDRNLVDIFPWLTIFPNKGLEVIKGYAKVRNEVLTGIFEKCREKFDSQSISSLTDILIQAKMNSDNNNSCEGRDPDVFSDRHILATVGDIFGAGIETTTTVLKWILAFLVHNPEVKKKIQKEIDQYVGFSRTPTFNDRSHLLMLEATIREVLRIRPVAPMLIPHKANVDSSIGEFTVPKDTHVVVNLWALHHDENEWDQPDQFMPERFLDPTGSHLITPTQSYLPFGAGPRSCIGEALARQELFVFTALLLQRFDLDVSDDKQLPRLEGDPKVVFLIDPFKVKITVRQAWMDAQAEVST
Test: Measurement of inhibition of rat steroid 17-20 lyase activity [in vitro]
Format: biochemical
Procedure: (1) Measurement of inhibition of rat steroid 17-20 lyase activity [in vitro] This was carried out in accordance with the method described in J. Steroid Biochem., Vol.33, No.6, 1191-1195 (1989). Testes were excised from ten-week-old male Wistar rats, homogenized and then centrifuged to give microsomes. […]
observable: IC50 (nM)

In [3]: df
Out[3]:
                                   compound  result_unit  reported_result
0  CC(c1ccc2c(c1)[nH]c1ccccc12)c1c[nH]cn1 (centres unmarked) [Example 1e]           nM              3.9
1  CCCn1cncc1Cc1ccc2c(c1)[nH]c1ccccc12 [Example 13]           nM              2.5
